experimental.protocol: AUC (0 to infinity) in BALB/c mouse at 50 mg/kg, po administered via gavage by LC-MS/MS analysis
Assay type: ADME, organism-based
Set-up: dose 50 mg/kg, time infinity, route oral
test.parameters: in vivo
endpoint.name: AUC(0-inf) (ng·h/mL)
One number for each entry, in ng·h/mL.

What value of measured AUC(0-inf) is listed for Cc1cc(-c2ccc(OCCn3c([N+](=O)[O-])cnc3C)cc2)nc2ccccc12 ?
18200

###

experimental.protocol: Half life in BALB/c mouse at 50 mg/kg, po administered via gavage by LC-MS/MS analysis
Format: ADME, organism-based
test.parameters: in vivo
endpoint.name: half-life (h)
One number for each entry, in h.

What value of measured half-life is listed for Cc1cc(-c2ccc(OCCn3c([N+](=O)[O-])cnc3C)cc2)nc2ccccc12 ?
4.02
